Give Kd for every item shown.
- experimental_target: KIT (Homo sapiens)
- Construct: made in house
- Sequence (P10721 26-976): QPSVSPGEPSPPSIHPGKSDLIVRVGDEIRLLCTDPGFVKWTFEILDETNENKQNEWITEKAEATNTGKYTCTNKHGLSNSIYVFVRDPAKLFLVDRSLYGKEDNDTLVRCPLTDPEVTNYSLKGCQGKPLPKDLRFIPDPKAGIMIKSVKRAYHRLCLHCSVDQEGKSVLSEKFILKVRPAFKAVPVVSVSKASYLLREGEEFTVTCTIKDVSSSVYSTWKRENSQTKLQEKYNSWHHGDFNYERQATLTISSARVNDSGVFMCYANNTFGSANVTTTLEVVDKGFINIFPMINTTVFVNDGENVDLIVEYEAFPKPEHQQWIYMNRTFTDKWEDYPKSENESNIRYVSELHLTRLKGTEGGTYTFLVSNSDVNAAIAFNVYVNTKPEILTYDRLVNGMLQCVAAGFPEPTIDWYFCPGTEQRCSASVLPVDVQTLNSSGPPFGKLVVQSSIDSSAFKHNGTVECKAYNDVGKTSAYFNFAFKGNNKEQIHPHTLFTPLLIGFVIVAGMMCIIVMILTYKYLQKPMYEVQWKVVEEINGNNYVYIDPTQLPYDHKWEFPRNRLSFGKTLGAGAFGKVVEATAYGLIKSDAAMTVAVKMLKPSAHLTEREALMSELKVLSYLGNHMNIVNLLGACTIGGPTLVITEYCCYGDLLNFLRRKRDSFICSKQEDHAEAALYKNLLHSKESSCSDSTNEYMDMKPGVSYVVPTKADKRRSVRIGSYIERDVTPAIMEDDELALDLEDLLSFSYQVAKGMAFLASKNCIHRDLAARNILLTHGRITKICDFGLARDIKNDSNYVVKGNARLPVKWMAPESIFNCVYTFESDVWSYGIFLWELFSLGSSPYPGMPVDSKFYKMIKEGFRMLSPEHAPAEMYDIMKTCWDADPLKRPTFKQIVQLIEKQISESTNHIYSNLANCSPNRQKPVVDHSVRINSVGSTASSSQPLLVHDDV
- assay_method_text: Competition binding assay, KIT Kd
- test_parameters: competition binding

Below, 3 compounds whose answers are already recorded.
| compound | Kd |
| --- | --- |
| C=Cc1ccc2c(c1)ncn2Cc1ccc2nc(N[C@@H]3CCCC[C@H]3O)sc2c1 [Example 183] | ≤ 0.1 µM |
| CON=C(C)c1ccn2c(Cc3ccc4nc(N[C@@H]5CCCC[C@H]5O)sc4c3)cnc2c1 [Example 204] | 0.1 to 0.5 µM |
| CS(=O)(=O)c1ccc2c(c1)ncn2Cc1ccc2nc(N[C@@H]3CCCC[C@H]3O)sc2c1 [Example 112] | 0.5 to 2 µM |

Value sought for every listed compound: Kd.
1. Cn1cc(-c2ccc3c(c2)ncn3Cc2ccc3nc(N[C@@H]4CCCC[C@H]4O)sc3c2)c(C(F)(F)F)n1 [Example 185]
2. CNC(=O)c1ccc2ncc(Cc3ccc4nc(N[C@@H]5CCCC[C@H]5O)sc4c3)n2n1 [Example 143]
3. O[C@@H]1CCCC[C@H]1Nc1nc2ccc(Cc3cnc4cc(-n5nccn5)ccn34)cc2s1 [Example 215]
4. O[C@@H]1CCCC[C@H]1Nc1nc2ccc(Cn3cnc4cc(C(F)(F)F)cnc43)cc2s1 [Example 212]
5. O[C@@H]1[C@H](O)CCC[C@H]1Nc1nc2ccc(Cc3cnc4cc(-n5cccn5)ccn34)cc2s1 [Example 229]
6. OCc1ccc2ncc(Cc3ccc4nc(N[C@@H]5CCCC[C@H]5O)sc4c3)n2n1 [Example 144]
7. O=C(c1ccn2c(Cc3ccc4nc(N[C@@H]5CCCC[C@H]5O)sc4c3)cnc2c1)N1CCCC1 [Example 223]
8. O[C@@H]1CCCC[C@H]1Nc1nc2ccc(Cn3cnc4cc(F)c(F)cc43)cc2s1 [Example 128]

Response:
1. ≤ 0.1 µM
2. 0.5 to 2 µM
3. 0.5 to 2 µM
4. ≤ 0.1 µM
5. ≤ 0.1 µM
6. 0.1 to 0.5 µM
7. 0.1 to 0.5 µM
8. 0.1 to 0.5 µM
